# TARGET ENTITY: T1, Scrambled Y42,52,63(SO3) PSGL-1(42-62) biotin peptide (sulfotyrosine at peptide positions 1, 11 and 22; C-terminal Lys-biotin)
# T1 peptide: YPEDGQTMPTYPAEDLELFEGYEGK
# EXPERIMENT: ELISA, immobilized biotin peptide
PROPERTY LABEL: A450nm, 20 nM mAb (A450nm)
Provide only the numeric value, understood in A450nm.

Some binders with recorded A450nm, 20 nM mAb:
06A07 (antibody, IgG4, V domains shown) VH: QVQLVQSGPELKNPGASVKVSCKASGYSFTNFYINWVRQAPGRGLEWVGWISPNNGNTHYARNLQGRVTMTTDTSTNTAYLELKNLRSDDTAIYFCGRSVSMGYWGQGTLVTVSS VL: LPVLTQPPSVSKGLRQTATLTCTGNSKNVGNQGAAWLQQHQGQPPKLLSYRNNNRPSGISERFSASRSGNTASLTITGLQPEDEADYYCSAWDSSLSAQVFGGGTKLTVL    0.02
05H03 (antibody, IgG4, V domains shown) VH: QVQLQQSGGGLVQPGGSLTLSCVGSGFDFRSYAMSWVRQAPGKGLEWVSGINNSGSKTYYADFVKGRFSVSRDNSKNIVWLRMRSLRAEDTAVYYCARRTFGPPHAWGQGTMVTVSS VL: DIVMTQSPLSLSVTPGEPASISCRSSQSLLHSNGYKYLDWYLQKPGQSPQLLIYMGSNRASGVPDRFSGSGSGTDFTLKISRVEAEDVGVYYCMQGLQSPLTFGGGTKVEIE    0.04
07E07 (antibody, IgG4, V domains shown) VH: QVQLQQSGAEVKKPGASVKVSCKASGYTFTSYYMHWVRQAPGQGLEWMGIINTSSGSTKYAQRFQDRVTVTRDTSTTTVYMELNSLRSEDTAVYYCARGGRAYSGSFDNWGQGTLVTVSS VL: DVVMTQSPLSLPVTLGQPASISCRSSQSLVHRDGNTYFNWFQQRPGQSPRRLIYKVSNRDSGVPDRFSGSGSGTDFTLKISRVEAEDVGVYYCMQATHWPRTFGQGTKVEIK    0.01

Input 01A11 (antibody, IgG4, V domains shown) VH: EVKLLESGGGLVQPGGSLRLSCATSGFSFSDYWMSWVRQAPGKGLEWVASIKKDGSEKYYVDSVKGRFTISRDNAKNSLYVQMNSLRAEDTAIYYCVVFGAWGPGTLVTVSS VL: DIVMTQTPLSLPVTLGQPASISCRSGRSLVYSDGNTYLNWFQQRPGQSPRRLIYKVSNRDSGVPDRFSGGGSGTDFTLKISRVEAEDVAIYYCMQGTHWPPTFGQGTKLEIK . Output A450nm, 20 nM mAb: 0.03

Input 09A02 (antibody, IgG4, V domains shown) VH: EVQLVQSGGGLVKPGGSLRLSCAASGFTFRTAWMSWVRQAPGKGLEWVGRMKSKNDGGTTDYAAPVKGRFTISRDDSRDTVYLQMNSLKTEDTGVYYCATYAAGATVPWGQGTLVTVSS VL: DIVMTQTPLSAPVTLGQPASISCRSSRSLLQRNGYNYVDWYQQKAGNPPRLLIYLGSRRASGVPDRFSGSGSDKDFTLKISRVEADDVGFYFCKQSLQAPPTFGGGTKIEIT . Output A450nm, 20 nM mAb: 0.03

Input 02E06 (antibody, IgG4, V domains shown) VH: QVQLVQSGAEVKKPGASVKVSCKASGYSFTDYYMHWVRQAPGQGLEWMGWMNPNSGNTGYAQTFQGRVTMTRNTSISTAYMELSSLRSEDTAVYYCARGRRVRGTPTFEYWGQGTLVTVSS VL: QSVVTQPPSASGTPGQRVTISCSGRSSNIGSYTVNWFQHLPGTGPKLLIYGNNQRPSGVPGRFSGSKSGTSASLAISGLQSNDEATYYCAAWDDSLNGHYVFGTGTKVTVL . Output A450nm, 20 nM mAb: 0.12

Input 02E01 (antibody, IgG4, V domains shown) VH: EVQLVQSGGGVVQPGRSLRLSCAASGFTFSRYGMHWVRQAPGKGLEWVSVISYDGNNKYYADSVKGRFTISRDNSKNTVYLQMNSLRADDTAVYYCARNVPVTNFGYWGQGTLVTVSS VL: QSALTQPASVSGSPGQSITISCTGTSSDVGGYNYVSWYQQHPGKAPKLMIYDVSKRPSGVSNRFSGSKSGNTASLTISGLQAEDEADYYCSSYTRPGRVFGGGTKLTVL . Output A450nm, 20 nM mAb: 0.03

Input 05D01 (antibody, V domains shown) VH: QVTLRESGGALVQPGGSLRLSCAASGFPLRSNAMTWVRQAPGKGLEWVSDIRGNGASTYYADSVKGRFTISRDDSNNILFLQMNSLRAEDTAVYYCVGHGSSSYWGQGTLVTVSS VL: DVVMTQSPLSLPVTLGQPASISCRSSQSLVYRDGNIYLNWFQQRPGQSPRRLIYKVSNRDSGVPDRFSGSGSGTDFTLKISRVEAEDVGVYYCMQLTHWPPGFAQGTKLEIK . Output A450nm, 20 nM mAb: 0.01

Input 05E08 (antibody, IgG4, V domains shown) VH: EVQLVQSGGGVVQPGRSLRLSCAASGFTFSTYAMHWVRQAPGKGLEWVAVISYDGSNKYYADSVKGRFTISRDNSRNTLFLQMNSLRDEDTAVYYCAKRGTMIRGERSLDFWGQGTLVTVSS VL: AIQMTQSPSFLSASVGDRVTITCRASQGINSWLAWYQQKPGTAPNLLIHAASTLQSGVPSRFSGSRSGTEFTLTISSLQPEDFATYYCQQLQSYPLTFGQGTRLEIK . Output A450nm, 20 nM mAb: 0.01

Input 09D04 (antibody, IgG4, V domains shown) VH: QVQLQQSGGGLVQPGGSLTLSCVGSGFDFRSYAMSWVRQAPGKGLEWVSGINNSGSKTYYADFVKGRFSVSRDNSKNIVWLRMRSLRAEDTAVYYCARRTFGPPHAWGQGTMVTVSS VL: DVVMTQSPLSLPVTPGEPASISCRSSQSLLHSNGYTYLEWYLHKPGQSPQLLIYLGSNRASGVPDRFSGSGSGTDFTLKISRVEAEDVGVYYCMHSLHIPFTFGPGTKVDIK . Output A450nm, 20 nM mAb: 0.05

These entries and their values trace back to patent US20220396632A1.
